The entries below come with measured pIC50 values attached.
- measurement target: UniProt:P04150
- Sequence (P04150 whole entry): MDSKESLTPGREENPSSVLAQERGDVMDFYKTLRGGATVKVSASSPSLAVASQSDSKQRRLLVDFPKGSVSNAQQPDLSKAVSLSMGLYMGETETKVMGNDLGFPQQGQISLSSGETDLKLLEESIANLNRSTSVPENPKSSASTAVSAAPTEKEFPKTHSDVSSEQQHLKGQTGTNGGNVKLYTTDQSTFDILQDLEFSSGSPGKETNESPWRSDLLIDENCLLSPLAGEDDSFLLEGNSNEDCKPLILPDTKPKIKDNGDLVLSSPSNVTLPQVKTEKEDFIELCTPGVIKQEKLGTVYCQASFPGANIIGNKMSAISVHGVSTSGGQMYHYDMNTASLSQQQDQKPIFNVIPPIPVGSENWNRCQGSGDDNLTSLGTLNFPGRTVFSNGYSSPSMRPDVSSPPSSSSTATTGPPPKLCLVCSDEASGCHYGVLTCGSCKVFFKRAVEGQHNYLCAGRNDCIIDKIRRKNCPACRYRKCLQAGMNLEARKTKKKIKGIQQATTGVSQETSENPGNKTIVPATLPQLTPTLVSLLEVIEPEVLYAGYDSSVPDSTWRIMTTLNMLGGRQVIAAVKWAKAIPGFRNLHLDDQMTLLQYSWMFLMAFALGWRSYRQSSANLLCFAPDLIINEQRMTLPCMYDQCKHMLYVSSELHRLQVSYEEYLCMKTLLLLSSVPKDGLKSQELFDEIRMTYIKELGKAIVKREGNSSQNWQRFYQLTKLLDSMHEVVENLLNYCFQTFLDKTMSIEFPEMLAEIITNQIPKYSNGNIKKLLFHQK
pIC50: −log10 of the molar value.
attribute measured: pIC50

# compound, attribute measured, value
rows = [
    ("COc1cccc2c1CCCC2CC(O)(C(=O)Nc1ccc2c(=O)onc(C)c2c1)C(F)(F)F (configuration not stated)", "pIC50", 7.90),
    ("Cc1noc(=O)c2ccc(NC(=O)C(O)(CC3CCCc4cc(F)ccc43)C(F)(F)F)cc12 (configuration not stated)", "pIC50", 7.90),
    ("Cc1noc(=O)c2ccc(NC(=O)[C@](O)(C[C@@]3(C4CCCC4)CCCc4ccccc43)C(F)(F)F)cc12", "pIC50", 8.09),
    ("CCCC1(CC(O)(C(=O)Nc2ccc3c(=O)onc(C)c3c2)C(F)(F)F)CCCc2ccccc21 (configuration not stated)", "pIC50", 8.25),
    ("CCC1(CC(O)(C(=O)Nc2ccc3c(=O)onc(C)c3c2)C(F)(F)F)CCCc2ccccc21 (configuration not stated)", "pIC50", 8.21),
    ("Cc1noc(=O)c2ccc(NC(=O)C(O)(CC3CCCc4c(Cl)cccc43)C(F)(F)F)cc12 (stereo in doubt; 20a)", "pIC50", 7.80),
    ("Cc1noc(=O)c2ccc(NC(=O)C(O)(CC3CCCc4ccc(F)cc43)C(F)(F)F)cc12 (configuration not stated)", "pIC50", 7.80),
    ("Cc1noc(=O)c2ccc(NC(=O)C(O)(CC3CCCc4c(Br)cccc43)C(F)(F)F)cc12 (stereo in doubt; 23a)", "pIC50", 7.80),
    ("CCC1(CC(O)(C(=O)Nc2ccc3c(=O)onc(C)c3c2)C(F)(F)F)CCCc2cc([N+](=O)[O-])ccc21 (configuration not stated)", "pIC50", 8.10),
    ("CCC1(CC(O)(C(=O)Nc2ccc3c(=O)onc(C)c3c2)C(F)(F)F)CCOc2ccccc21 (stereo in doubt; 37)", "pIC50", 7.78),
    ("Cc1noc(=O)c2ccc(NC(=O)C(O)(CC3CCCc4c3cccc4[N+](=O)[O-])C(F)(F)F)cc12 (configuration not stated)", "pIC50", 7.90),
    ("Cc1noc(=O)c2ccc(NC(=O)C(O)(CC3(C(C)(C)C)CCCc4ccccc43)C(F)(F)F)cc12 (configuration not stated)", "pIC50", 7.94),
    ("CCC1(CC(O)(C(=O)Nc2ccc3c(=O)onc(C)c3c2)C(F)(F)F)CCCc2ccc([N+](=O)[O-])cc21 (configuration not stated)", "pIC50", 8.20),
    ("Cc1noc(=O)c2ccc(NC(=O)C(O)(CC3(C4CCC4)CCCc4ccccc43)C(F)(F)F)cc12 (configuration not stated)", "pIC50", 8.02),
    ("Cc1noc(=O)c2ccc(NC(=O)C(O)(CC3(C)CCCc4ccccc43)C(F)(F)F)cc12 (stereo in doubt; 35d)", "pIC50", 8.00),
    ("Cc1noc(=O)c2ccc(NC(=O)C(O)(CC3CCCc4cc([N+](=O)[O-])ccc43)C(F)(F)F)cc12 (configuration not stated)", "pIC50", 6.90),
    ("Cc1noc(=O)c2ccc(NC(=O)C(O)(CC3(C(C)C)CCCc4ccccc43)C(F)(F)F)cc12 (configuration not stated)", "pIC50", 8.32),
    ("Cc1noc(=O)c2ccc(NC(=O)C(O)(CC3(C)CCCc4ccccc43)C(F)(F)F)cc12 (stereo in doubt; 35c)", "pIC50", 6.60),
    ("Cc1noc(=O)c2ccc(NC(=O)C(O)(CC3CCCc4cccc(F)c43)C(F)(F)F)cc12 (configuration not stated)", "pIC50", 7.50),
    ("CCC1(CC(O)(C(=O)Nc2ccc3c(=O)onc(C)c3c2)C(F)(F)F)CCCc2c([N+](=O)[O-])cccc21 (configuration not stated)", "pIC50", 8.30),
    ("CCC1(CC(O)(C(=O)Nc2ccc3c(=O)onc(C)c3c2)C(F)(F)F)CCOc2ccccc21 (stereo in doubt; 38)", "pIC50", 7.93),
    ("Cc1noc(=O)c2ccc(NC(=O)C(O)(CC3(C4CCCCC4)CCCc4ccccc43)C(F)(F)F)cc12 (configuration not stated)", "pIC50", 8.07),
    ("Cc1noc(=O)c2ccc(NC(=O)C(O)(CC3CCCc4c(Br)cccc43)C(F)(F)F)cc12 (stereo in doubt; 23b)", "pIC50", 7.40),
    ("Cc1cccc2c1CCCC2CC(O)(C(=O)Nc1ccc2c(=O)onc(C)c2c1)C(F)(F)F (stereo in doubt; 19b)", "pIC50", 8.50),
    ("Cc1noc(=O)c2ccc(NC(=O)C(O)(CC3CCCc4c(N)cccc43)C(F)(F)F)cc12 (configuration not stated)", "pIC50", 7.60),
    ("Cc1noc(=O)c2ccc(NC(=O)C(O)(CC3CCCc4c(F)cccc43)C(F)(F)F)cc12 (configuration not stated)", "pIC50", 7.80),
    ("Cc1noc(=O)c2ccc(NC(=O)C(O)(CC3CCCc4c(C#N)cccc43)C(F)(F)F)cc12 (configuration not stated)", "pIC50", 7.80),
    ("CCC(CC)C1(CC(O)(C(=O)Nc2ccc3c(=O)onc(C)c3c2)C(F)(F)F)CCCc2ccccc21 (configuration not stated)", "pIC50", 8.28),
    ("Cc1noc(=O)c2ccc(NC(=O)C(O)(CC3(C4CC4)CCCc4ccccc43)C(F)(F)F)cc12 (configuration not stated)", "pIC50", 8.33),
    ("Cc1noc(=O)c2ccc(NC(=O)C(O)(CC3CCCc4c(Br)cccc43)C(F)(F)F)cc12 (stereo in doubt; 23c)", "pIC50", 8.20),
    ("Cc1noc(=O)c2ccc(NC(=O)C(O)(CC3(C)CCCc4ccccc43)C(F)(F)F)cc12 (stereo in doubt; 35b)", "pIC50", 8.10),
    ("Cc1noc(=O)c2ccc(NC(=O)C(O)(CC3CCCc4ccccc43)C(F)(F)F)cc12 (configuration not stated)", "pIC50", 8.10),
]
